Test: Induction of nitric oxide release in potassium phosphate buffer at pH 7.4 at 0.1 mM after 45 mins by Griess assay
Type: physicochemical
Details: pH 7.4, 0.75 h, 100 µM
Listing of recorded Activity by entry.

CCCCC(OC(=O)CN1CCN(CCCCCCOc2ccc(-c3cc(=S)ss3)cc2)CC1)c1ccccc1C(=O)Oc1ccc(/C=C/C(=O)OCCCCO[N+](=O)[O-])cc1OC (racemic)    3.09 µM

Please examine the following record next.
Reported Activity of CCCCC(OC(=O)CN1CCN(CCCCOc2ccc(-c3cc(=S)ss3)cc2)CC1)c1ccccc1C(=O)Oc1ccc(/C=C/C(=O)OCCCCCCO[N+](=O)[O-])cc1OC (racemic) : 3.26 µM

###

Assay: Induction of nitric oxide release in potassium phosphate buffer at pH 7.4 at 0.1 mM after 300 mins by Griess assay
Format: physicochemical
Details: pH 7.4, 5 h, 100 µM
Measured Activity, listed per entry.
Give just the number in µM; leave the unit off.

// worked examples, Activity included
CCCCC(OC(=O)CN1CCN(CCCCCCOc2ccc(-c3cc(=S)ss3)cc2)CC1)c1ccccc1C(=O)Oc1ccc(/C=C/C(=O)OCCO[N+](=O)[O-])cc1OC (racemic)    7.51
CCCCC(OC(=O)CN1CCN(CCCOc2ccc(-c3cc(=S)ss3)cc2)CC1)c1ccccc1C(=O)Oc1ccc(/C=C/C(=O)OCCCCO[N+](=O)[O-])cc1OC (racemic)    3.32

Moving on to the next compound.
Per the record, CCCCC(OC(=O)CN1CCN(CCCCCCOc2ccc(-c3cc(=S)ss3)cc2)CC1)c1ccccc1C(=O)Oc1ccc(/C=C/C(=O)OCCCCCCO[N+](=O)[O-])cc1OC (racemic) has Activity of 10.22

###

Assay: Induction of nitric oxide release in potassium phosphate buffer at pH 7.4 at 0.1 mM after 240 mins by Griess assay
Assay type: physicochemical
Settings: pH 7.4, 4 h, 100 µM
measurementKind: Activity (µM)
Give the value, in units of µM, as a plain number.

For orientation, consider the following solved cases.
CCCCC(OC(=O)CN1CCN(CCCCCCOc2ccc(-c3cc(=S)ss3)cc2)CC1)c1ccccc1C(=O)Oc1ccc(/C=C/C(=O)OCCCCCCO[N+](=O)[O-])cc1OC (racemic)    10.18
CCCCC(OC(=O)CN1CCN(CCCCCOc2ccc(-c3cc(=S)ss3)cc2)CC1)c1ccccc1C(=O)Oc1ccc(/C=C/C(=O)OCCO[N+](=O)[O-])cc1OC (racemic)    10.35

Note to self: Activity recorded for CCCCC(OC(=O)CN1CCN(CCCCCCOc2ccc(-c3cc(=S)ss3)cc2)CC1)c1ccccc1C(=O)Oc1ccc(/C=C/C(=O)OCCO[N+](=O)[O-])cc1OC (racemic) was 7.51

###

Assay: Induction of nitric oxide release in potassium phosphate buffer at pH 7.4 at 0.1 mM after 240 mins by Griess assay
Format: physicochemical
Conditions: pH 7.4, 4 h, 100 µM
Reported Activity values follow for various molecules
Respond with the bare value in µM.

What the record says about CCCCC(OC(=O)CN1CCN(CCCCCCOc2ccc(-c3cc(=S)ss3)cc2)CC1)c1ccccc1C(=O)Oc1ccc(/C=C/C(=O)OCCCCO[N+](=O)[O-])cc1OC (racemic) : Activity is 5.51

Lab note: measured Activity of CCCCC(OC(=O)CN1CCN(CCCCOc2ccc(-c3cc(=S)ss3)cc2)CC1)c1ccccc1C(=O)Oc1ccc(/C=C/C(=O)OCCCCO[N+](=O)[O-])cc1OC (racemic) was 8.25
